src = patent US20180320217A1

# Lookup of reported Absorbance, formation of formazan dyes (Means) keyed by entry
Tested on: diaphorase
Assay: Formation of formazan dyes: only diaphorase and malate (TABLE 14)
Assay type: biochemical, Clostridium kluyveri
Conditions: 2 h, mean of three experiments
// return just the number, without any unit appended

Record excerpt, results attached:
[[record]]
test_smiles = "COc1cc([N+](=O)[O-])c(S(=O)(=O)[O-])cc1-n1nc(C(=O)Nc2ccccc2)n[n+]1-c1cc(S(=O)(=O)O)c([N+](=O)[O-])cc1OC"
number = 0.48

[[record]]
test_smiles = "COc1cc([N+](=O)[O-])ccc1-[n+]1nc(-c2ccc(S(=O)(=O)[O-])cc2S(=O)(=O)[O-])nn1-c1ccc([N+](=O)[O-])cc1.[Na+]"
number = 0.16

[[record]]
test_smiles = "O=[N+]([O-])c1ccc(-[n+]2nc(-c3ccc(S(=O)(=O)[O-])cc3S(=O)(=O)[O-])nn2-c2ccc(I)cc2)cc1.[Na+]"
number = 0.23

[[record]]
test_smiles = "Cc1nc(-[n+]2nc(-c3cccc(OCC(=O)O)c3)nn2-c2ccc(S(=O)(=O)[O-])cc2)sc1C"
number = 0.27


Turning to the following compound.
Query Absorbance, formation of formazan dyes (Means) for `COc1cc(-c2ccc(-[n+]3nc(-c4ccc(C(=O)N(CCS(=O)(=O)[O-])CCS(=O)(=O)[O-])cc4)nn3-c3nc4ccccc4s3)c(OC)c2)ccc1-[n+]1nc(-c2ccc(C(=O)N(CCS(=O)(=O)[O-])CCS(=O)(=O)[O-])cc2)nn1-c1nc2ccccc2s1.[Na+].[Na+]` 0.15
